- System Name: hCA XII (Homo sapiens, UniProt O43570)
- Sequence (O43570 25-354): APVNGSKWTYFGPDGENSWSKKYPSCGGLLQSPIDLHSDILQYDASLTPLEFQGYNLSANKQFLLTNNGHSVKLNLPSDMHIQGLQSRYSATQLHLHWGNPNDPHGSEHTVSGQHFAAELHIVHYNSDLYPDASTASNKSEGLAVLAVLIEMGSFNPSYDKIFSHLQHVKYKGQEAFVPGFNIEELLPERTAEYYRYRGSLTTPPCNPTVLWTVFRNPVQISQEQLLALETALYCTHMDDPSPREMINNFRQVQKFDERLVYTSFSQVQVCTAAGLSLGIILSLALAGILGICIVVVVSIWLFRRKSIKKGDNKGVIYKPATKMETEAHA
- Method Notes: Carbonic anhydrase inhibition, colorimetric method (BioVision CA Inhibitor Screening Kit)
Parameter Measured: Ki (nM)
Answer format: numeric, nM implied, no suffix.

// below: answered molecules
>>> assay_value("COc1ccc2[nH]c(=O)c(/C=N/c3c(N)n(C)c(=S)[nH]c3=O)cc2c1 [Compound 10l]")
110
>>> assay_value("COc1ccc2[nH]c(=O)c(/C=N/c3c(N)n(Cc4ccccc4)c(=O)[nH]c3=O)cc2c1 [Compound 10i]")
130

Problem: Given Cc1cccc2cc(/C=N/c3c(N)n(C)c(=S)[nH]c3=O)c(=O)[nH]c12 [Compound 10g] , respond with its Ki.
Result: 180

Problem: Given COc1ccc2[nH]c(=O)c(/C=N/c3c(N)[nH]c(=O)[nH]c3=O)cc2c1 [Compound 10h] , respond with its Ki.
Result: 220

Problem: Given Nc1[nH]c(=O)[nH]c(=O)c1/N=C/c1cc2ccccc2[nH]c1=O [Compound 10a] , respond with its Ki.
Result: 170

Problem: Given Cn1c(N)c(/N=C/c2cc3ccccc3[nH]c2=O)c(=O)[nH]c1=O [Compound 10d] , respond with its Ki.
Result: 110

Problem: Given Nc1c(/N=C/c2cc3ccccc3[nH]c2=O)c(=O)[nH]c(=O)n1Cc1ccccc1 [Compound 10b] , respond with its Ki.
Result: 190

Problem: Given Cn1c(N)c(/N=C/c2cc3ccccc3[nH]c2=O)c(=O)[nH]c1=S [Compound 10e] , respond with its Ki.
Result: 330
